Test system: KRAS-mutant PDC multicell tumor spheroid viability
Measurement Description: Anticancer human tumor 521955-158-R2-J5-PDC patient-derived pancreatic carcinoma cell line growth inhibition [KRAS2]
Measurement Context: second compound 3.16 µM; first compound 0.1 µM; hits give low values
molecules and their reported viability, T/C
Reported Endpoint: viability, T/C (%)

INSERT INTO results (molecule, reported_endpoint, data_value) VALUES
  ('CC1OCC2(CCN(c3cnc(Sc4ccnc(N)c4Cl)c(N)n3)CC2)C1N (stereo unspecified) + COc1cc2nc(C)nc(NC(C)c3cc(N)cc(C(F)(F)F)c3)c2cc1OC1CCOC1', 'viability, T/C', 102),
  ('O=C(c1cc(Cc2n[nH]c(=O)c3ccccc23)ccc1F)N1CCN(C(=O)C2CC2)CC1 + C=CC(=O)N1CCN(c2nc(OCC3CCCN3C)nc3c2CCN(c2cccc4cccc(C)c24)C3)CC1CC#N', 'viability, T/C', 1.68),
  ('CC(C)NCC(C(=O)N1CCN(c2ncnc3c2C(C)CC3O)CC1)c1ccc(Cl)cc1 (stereo unspecified) + COc1cc2nc(C)nc(NC(C)c3cc(N)cc(C(F)(F)F)c3)c2cc1OC1CCOC1', 'viability, T/C', 93.1),
  ('Cn1ncnc1[C@H]1c2n[nH]c(=O)c3cc(F)cc(c23)N[C@@H]1c1ccc(F)cc1 + COc1cc2nc(C)nc(NC(C)c3cc(N)cc(C(F)(F)F)c3)c2cc1OC1CCOC1', 'viability, T/C', 70.3),
  ('CC1(C)CCC(CN2CCN(c3ccc(C(=O)NS(=O)(=O)c4ccc(NCC5CCOCC5)c([N+](=O)[O-])c4)c(Oc4cnc5[nH]ccc5c4)c3)CC2)=C(c2ccc(Cl)cc2)C1 + C=CC(=O)N1CCN(c2nc(OCC3CCCN3C)nc3c2CCN(c2cccc4cccc(C)c24)C3)CC1CC#N', 'viability, T/C', 8.43),
  ('CC(=O)OC12COC1CC(O)C1(C)C(=O)C(O)C3=C(C)C(OC(=O)C(O)C(NC(=O)OC(C)(C)C)c4ccccc4)CC(O)(C(OC(=O)c4ccccc4)C21)C3(C)C (stereo unspecified) + CC1OCC2(CCN(c3cnc(Sc4ccnc(N)c4Cl)c(N)n3)CC2)C1N', 'viability, T/C', 14.5);

###

compounds and their reported viability, T/C
System: KRAS-mutant PDC multicell tumor spheroid viability
Measurement Description: Anticancer human tumor 521955-158-R2-J5-PDC cell line growth inhibition [KRAS2];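 also: viability read after seven days of drug exposure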
Measurement Context: second compound 1 µM; first compound 0.0316 µM; hits give low values
Reported Endpoint: viability, T/C (%)

INSERT INTO results (compound, tgt, data_value) VALUES
  ('COc1cc2nccc(Oc3ccc(NC(=O)C4(C(=O)Nc5ccc(F)cc5)CC4)cc3)c2cc1OC + COc1cc2nc(C)nc(NC(C)c3cc(N)cc(C(F)(F)F)c3)c2cc1OC1CCOC1', 'KRAS-mutant PDC multicell tumor spheroid viability', 89),
  ('CN(C)C/C=C/C(=O)Nc1cc2c(Nc3ccc(F)c(Cl)c3)ncnc2cc1O[C@H]1CCOC1 + C=CC(=O)N1CCN(c2nc(OCC3CCCN3C)nc3c2CCN(c2cccc4cccc(C)c24)C3)CC1CC#N', 'KRAS-mutant PDC multicell tumor spheroid viability', 58.8),
  ('CC1(C)CCC(CN2CCN(c3ccc(C(=O)NS(=O)(=O)c4ccc(NCC5CCOCC5)c([N+](=O)[O-])c4)c(Oc4cnc5[nH]ccc5c4)c3)CC2)=C(c2ccc(Cl)cc2)C1 + CNCc1ccccc1-c1csc(C(C)Nc2nc(C)nc3cc(OC)c(OC)cc23)c1', 'KRAS-mutant PDC multicell tumor spheroid viability', 91.1),
  ('CCN1CCN(Cc2ccc(Nc3ncc(F)c(-c4cc(F)c5nc(C)n(C(C)C)c5c4)n3)nc2)CC1 + COc1cc2nc(C)nc(NC(C)c3cc(N)cc(C(F)(F)F)c3)c2cc1OC1CCOC1', 'KRAS-mutant PDC multicell tumor spheroid viability', 87.5),
  ('CCN1CCN(Cc2ccc(Nc3ncc(F)c(-c4cc(F)c5nc(C)n(C(C)C)c5c4)n3)nc2)CC1 + CC1OCC2(CCN(c3cnc(Sc4ccnc(N)c4Cl)c(N)n3)CC2)C1N', 'KRAS-mutant PDC multicell tumor spheroid viability', 58.2);

###

Tested on: KRAS-mutant PDC multicell tumor spheroid viability
Measurement Description: Anticancer human tumor 521955-158-R2-J5-PDC cell line growth inhibition [KRAS2];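 also: viability read after seven days of drug exposure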
Measurement Context: second compound 1 µM; first compound 0.316 µM; hits give low values
molecules and their reported viability, T/C
Reported Endpoint: viability, T/C

INSERT INTO results (molecule, data_value) VALUES
  ('COc1cc2nccc(Oc3ccc(NC(=O)C4(C(=O)Nc5ccc(F)cc5)CC4)cc3)c2cc1OC + C=CC(=O)N1CCN(c2nc(OCC3CCCN3C)nc3c2CCN(c2cccc4cccc(C)c24)C3)CC1CC#N', '89.7%'),
  ('CC(C)NCC(C(=O)N1CCN(c2ncnc3c2C(C)CC3O)CC1)c1ccc(Cl)cc1 (configuration not stated) + CC1OCC2(CCN(c3cnc(Sc4ccnc(N)c4Cl)c(N)n3)CC2)C1N', '46.5%'),
  ('CC(C)NCC(C(=O)N1CCN(c2ncnc3c2C(C)CC3O)CC1)c1ccc(Cl)cc1 (configuration not stated) + C=CC(=O)N1CCN(c2nc(=O)n(-c3c(C)ccnc3C(C)C)c3nc(-c4c(O)cccc4F)c(F)cc23)C(C)C1', '64.1%'),
  ('CCNC(=O)CC1N=C(c2ccc(Cl)cc2)c2cc(OC)ccc2-n2c(C)nnc21 (configuration not stated) + CNCc1ccccc1-c1csc(C(C)Nc2nc(C)nc3cc(OC)c(OC)cc23)c1', '51.8%'),
  ('CC1(C)CCC(CN2CCN(c3ccc(C(=O)NS(=O)(=O)c4ccc(NCC5CCOCC5)c([N+](=O)[O-])c4)c(Oc4cnc5[nH]ccc5c4)c3)CC2)=C(c2ccc(Cl)cc2)C1 + COc1cc2nc(C)nc(NC(C)c3cc(N)cc(C(F)(F)F)c3)c2cc1OC1CCOC1', '82.6%'),
  ('O=C(c1cc(Cc2n[nH]c(=O)c3ccccc23)ccc1F)N1CCN(C(=O)C2CC2)CC1 + CNCc1ccccc1-c1csc(C(C)Nc2nc(C)nc3cc(OC)c(OC)cc23)c1', '99.6%'),
  ('O=C(c1cc(Cc2n[nH]c(=O)c3ccccc23)ccc1F)N1CCN(C(=O)C2CC2)CC1 + COc1cc2nc(C)nc(NC(C)c3cc(N)cc(C(F)(F)F)c3)c2cc1OC1CCOC1', '94.6%');

###

compounds and their reported viability, T/C
Tested on: KRAS-mutant PDC multicell tumor spheroid viability
Measurement Description: Anticancer human tumor 521955-158-R2-J5-PDC cell line growth inhibition [KRAS2];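 also: viability read after seven days of drug exposure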
Measurement Context: second compound 0.1 µM; first compound 0.0316 µM; hits give low values
Reported Endpoint: viability, T/C (%)

INSERT INTO measurements (compound, reported_endpoint, data_value) VALUES
  ('CC(=O)OC12COC1CC(O)C1(C)C(=O)C(O)C3=C(C)C(OC(=O)C(O)C(NC(=O)OC(C)(C)C)c4ccccc4)CC(O)(C(OC(=O)c4ccccc4)C21)C3(C)C (configuration not stated) + C=CC(=O)N1CCN(c2nc(OCC3CCCN3C)nc3c2CCN(c2cccc4cccc(C)c24)C3)CC1CC#N', 'viability, T/C', 16.3),
  ('CC(C)n1nc(-c2ccc3oc(N)nc3c2)c2c(N)ncnc21 + C=CC(=O)N1CCN(c2nc(OCC3CCCN3C)nc3c2CCN(c2cccc4cccc(C)c24)C3)CC1CC#N', 'viability, T/C', 31.5),
  ('COC(=O)c1ccc2c(C(=Nc3ccc(N(C)C(=O)CN4CCN(C)CC4)cc3)c3ccccc3)c(O)[nH]c2c1 + CC1OCC2(CCN(c3cnc(Sc4ccnc(N)c4Cl)c(N)n3)CC2)C1N', 'viability, T/C', 79.4),
  ('CCNC(=O)CC1N=C(c2ccc(Cl)cc2)c2cc(OC)ccc2-n2c(C)nnc21 (configuration not stated) + CNCc1ccccc1-c1csc(C(C)Nc2nc(C)nc3cc(OC)c(OC)cc23)c1', 'viability, T/C', 108),
  ('Cn1nccc1Nc1nccc(-c2cc3c(s2)C(C)(C)N(CCN2CCOCC2)C3=O)n1 + COc1cc2nc(C)nc(NC(C)c3cc(N)cc(C(F)(F)F)c3)c2cc1OC1CCOC1', 'viability, T/C', 92.5),
  ('CC1OCC2(CCN(c3cnc(Sc4ccnc(N)c4Cl)c(N)n3)CC2)C1N (configuration not stated) + CNCc1ccccc1-c1csc(C(C)Nc2nc(C)nc3cc(OC)c(OC)cc23)c1', 'viability, T/C', 86.5),
  ('COc1cc(Nc2ncc3c(n2)-c2ccc(Cl)cc2C(c2c(F)cccc2OC)=NC3)ccc1C(=O)O + COc1cc2nc(C)nc(NC(C)c3cc(N)cc(C(F)(F)F)c3)c2cc1OC1CCOC1', 'viability, T/C', 40.5),
  ('COc1cc(Nc2ncc3c(n2)-c2ccc(Cl)cc2C(c2c(F)cccc2OC)=NC3)ccc1C(=O)O + CC1OCC2(CCN(c3cnc(Sc4ccnc(N)c4Cl)c(N)n3)CC2)C1N', 'viability, T/C', 44.6),
  ('COc1cc(Nc2ncc3c(n2)-c2ccc(Cl)cc2C(c2c(F)cccc2OC)=NC3)ccc1C(=O)O + CNCc1ccccc1-c1csc(C(C)Nc2nc(C)nc3cc(OC)c(OC)cc23)c1', 'viability, T/C', 57.5),
  ('CC1(C)CCC(CN2CCN(c3ccc(C(=O)NS(=O)(=O)c4ccc(NCC5CCOCC5)c([N+](=O)[O-])c4)c(Oc4cnc5[nH]ccc5c4)c3)CC2)=C(c2ccc(Cl)cc2)C1 + C=CC(=O)N1CCN(c2nc(=O)n(-c3c(C)ccnc3C(C)C)c3nc(-c4c(O)cccc4F)c(F)cc23)C(C)C1', 'viability, T/C', 100),
  ('CC(C)NCC(C(=O)N1CCN(c2ncnc3c2C(C)CC3O)CC1)c1ccc(Cl)cc1 (configuration not stated) + C=CC(=O)N1CCN(c2nc(=O)n(-c3c(C)ccnc3C(C)C)c3nc(-c4c(O)cccc4F)c(F)cc23)C(C)C1', 'viability, T/C', 102),
  ('CC(C)NCC(C(=O)N1CCN(c2ncnc3c2C(C)CC3O)CC1)c1ccc(Cl)cc1 (configuration not stated) + CC1OCC2(CCN(c3cnc(Sc4ccnc(N)c4Cl)c(N)n3)CC2)C1N', 'viability, T/C', 67.8);
